Quick list: Activity per entry.
# system.name: Ornithine decarboxylase (Homo sapiens) (UniProt P11926)
# Sequence (P11926 whole entry): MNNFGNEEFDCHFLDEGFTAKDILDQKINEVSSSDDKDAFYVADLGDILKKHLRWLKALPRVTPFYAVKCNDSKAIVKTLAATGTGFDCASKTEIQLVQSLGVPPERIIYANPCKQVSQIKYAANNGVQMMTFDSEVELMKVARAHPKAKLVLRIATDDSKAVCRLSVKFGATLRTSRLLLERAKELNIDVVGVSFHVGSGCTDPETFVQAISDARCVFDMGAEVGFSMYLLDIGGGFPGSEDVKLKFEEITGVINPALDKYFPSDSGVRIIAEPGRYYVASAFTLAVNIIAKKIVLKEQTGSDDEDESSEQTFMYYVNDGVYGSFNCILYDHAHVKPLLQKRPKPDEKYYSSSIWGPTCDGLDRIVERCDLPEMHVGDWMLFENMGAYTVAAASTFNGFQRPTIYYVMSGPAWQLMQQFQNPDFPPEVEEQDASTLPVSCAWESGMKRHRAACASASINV
# protocol.description: Activity of ornithine decarboxylase in human DU145 cells assessed per ug DNA at 100 uM after 48 hrs in presence of serum amine oxidase inhibitor aminoguanidine (RVb = 17.7+/- 2.6 pmol/h per ug DNA)
# Type: cell-based
# test.conditions: DU-145

{"columns": ["compound", "Activity [pmol/h]"],
 "data": [
  ["C[C@H](N)CCNCCCCN", 4.4],
  ["CC(CCN)NCCCCN (centres undefined)", 9.3],
  ["CC(CN)CNCCCCN (centres undefined)", 16.6],
  ["CC(N)CCCNCCCN (centres undefined)", 5.5]
]}

* * *

# system.name: Ornithine decarboxylase (Homo sapiens)
# protocol.description: Activity of ornithine decarboxylase in human DU145 cells assessed per ug DNA at 100 uM after 24 hrs in presence of serum amine oxidase inhibitor aminoguanidine (RVb = 29.3 +/- 1.4 pmol/h per ug DNA)
# Format: cell-based
# test.conditions: DU-145

{"columns": ["compound", "system.name", "Activity"],
 "data": [
  ["CC(CN)CNCCCCN (centres undefined)", "Ornithine decarboxylase (Homo sapiens)", "21.7 pmol/h"],
  ["CC(CCN)NCCCCN (centres undefined)", "Ornithine decarboxylase (Homo sapiens)", "8.8 pmol/h"],
  ["CC(N)CCCNCCCN (centres undefined)", "Ornithine decarboxylase (Homo sapiens)", "4.7 pmol/h"],
  ["C[C@H](N)CCNCCCCN", "Ornithine decarboxylase (Homo sapiens)", "4.3 pmol/h"]
]}

* * *

Listing of recorded Activity by entry.
# system.name: S-adenosylmethionine decarboxylase proenzyme (Homo sapiens) (UniProt P17707)
# Sequence (P17707 1-67 limits assumed): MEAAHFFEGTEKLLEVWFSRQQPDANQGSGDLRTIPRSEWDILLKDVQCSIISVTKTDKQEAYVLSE
# Sequence (P17707 68-334 limits assumed): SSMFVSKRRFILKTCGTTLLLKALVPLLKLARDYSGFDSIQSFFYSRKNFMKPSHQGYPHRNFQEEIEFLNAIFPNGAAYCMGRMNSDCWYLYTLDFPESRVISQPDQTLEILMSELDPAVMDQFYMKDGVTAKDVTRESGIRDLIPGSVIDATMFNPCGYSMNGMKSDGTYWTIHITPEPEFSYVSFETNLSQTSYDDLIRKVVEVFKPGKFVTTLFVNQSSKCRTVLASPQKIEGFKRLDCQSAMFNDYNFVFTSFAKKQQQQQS
# protocol.description: Activity of S-adenosyl-L-methionine decarboxylase in human DU145 cells assessed per ug DNA at 100 uM after 24 hrs in presence of serum amine oxidase inhibitor aminoguanidine (RVb = 61 +/- 5 pmol/h per ug DNA)
# Type: cell-based
# test.conditions: DU-145
outcome.measure: Activity (pmol/h)

{"columns": ["compound", "outcome.measure", "reported"],
 "data": [
  ["C[C@H](N)CCNCCCCN", "Activity", 64],
  ["CC(CCN)NCCCCN (centres undefined)", "Activity", 53],
  ["CC(CN)CNCCCCN (centres undefined)", "Activity", 67],
  ["CC(N)CCCNCCCN (centres undefined)", "Activity", 53]
]}

* * *

# system.name: Peroxisomal N(1)-acetyl-spermine/spermidine oxidase (Homo sapiens) (UniProt Q6QHF9)
# Sequence (Q6QHF9 whole entry): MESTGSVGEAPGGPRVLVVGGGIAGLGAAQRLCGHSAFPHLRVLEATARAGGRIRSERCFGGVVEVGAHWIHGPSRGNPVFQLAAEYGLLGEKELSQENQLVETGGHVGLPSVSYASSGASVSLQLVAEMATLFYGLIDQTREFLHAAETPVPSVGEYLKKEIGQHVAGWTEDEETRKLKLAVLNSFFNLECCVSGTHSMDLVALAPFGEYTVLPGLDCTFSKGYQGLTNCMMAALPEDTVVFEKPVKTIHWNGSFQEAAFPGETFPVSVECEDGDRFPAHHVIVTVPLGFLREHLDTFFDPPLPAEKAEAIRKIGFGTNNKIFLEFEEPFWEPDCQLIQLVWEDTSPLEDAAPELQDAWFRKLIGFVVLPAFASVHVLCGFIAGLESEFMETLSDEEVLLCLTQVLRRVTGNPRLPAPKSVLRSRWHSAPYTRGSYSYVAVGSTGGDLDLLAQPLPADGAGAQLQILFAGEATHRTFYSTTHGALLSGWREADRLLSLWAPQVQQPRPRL
# protocol.description: Activity of APAO in human DU145 cells assessed per ug DNA at 100 uM after 24 hrs in presence of serum amine oxidase inhibitor aminoguanidine (RVb = 540 +/- 61 pmol/h per ug DNA)
# Format: cell-based
# test.conditions: DU-145

{"columns": ["compound", "Activity / pmol/h"],
 "data": [
  ["CC(N)CCCNCCCN (centres undefined)", 562],
  ["CC(CCN)NCCCCN (centres undefined)", 528],
  ["CC(CN)CNCCCCN (centres undefined)", 562],
  ["C[C@H](N)CCNCCCCN", 545]
]}

Each recorded value in this set is attributed to ChEMBL document CHEMBL2177009.
